Where do these numbers come from? They come from patent US12447153B2.

Target: EGFR (Homo sapiens (Human), UniProt P00533)
Sequence (P00533 25-1210): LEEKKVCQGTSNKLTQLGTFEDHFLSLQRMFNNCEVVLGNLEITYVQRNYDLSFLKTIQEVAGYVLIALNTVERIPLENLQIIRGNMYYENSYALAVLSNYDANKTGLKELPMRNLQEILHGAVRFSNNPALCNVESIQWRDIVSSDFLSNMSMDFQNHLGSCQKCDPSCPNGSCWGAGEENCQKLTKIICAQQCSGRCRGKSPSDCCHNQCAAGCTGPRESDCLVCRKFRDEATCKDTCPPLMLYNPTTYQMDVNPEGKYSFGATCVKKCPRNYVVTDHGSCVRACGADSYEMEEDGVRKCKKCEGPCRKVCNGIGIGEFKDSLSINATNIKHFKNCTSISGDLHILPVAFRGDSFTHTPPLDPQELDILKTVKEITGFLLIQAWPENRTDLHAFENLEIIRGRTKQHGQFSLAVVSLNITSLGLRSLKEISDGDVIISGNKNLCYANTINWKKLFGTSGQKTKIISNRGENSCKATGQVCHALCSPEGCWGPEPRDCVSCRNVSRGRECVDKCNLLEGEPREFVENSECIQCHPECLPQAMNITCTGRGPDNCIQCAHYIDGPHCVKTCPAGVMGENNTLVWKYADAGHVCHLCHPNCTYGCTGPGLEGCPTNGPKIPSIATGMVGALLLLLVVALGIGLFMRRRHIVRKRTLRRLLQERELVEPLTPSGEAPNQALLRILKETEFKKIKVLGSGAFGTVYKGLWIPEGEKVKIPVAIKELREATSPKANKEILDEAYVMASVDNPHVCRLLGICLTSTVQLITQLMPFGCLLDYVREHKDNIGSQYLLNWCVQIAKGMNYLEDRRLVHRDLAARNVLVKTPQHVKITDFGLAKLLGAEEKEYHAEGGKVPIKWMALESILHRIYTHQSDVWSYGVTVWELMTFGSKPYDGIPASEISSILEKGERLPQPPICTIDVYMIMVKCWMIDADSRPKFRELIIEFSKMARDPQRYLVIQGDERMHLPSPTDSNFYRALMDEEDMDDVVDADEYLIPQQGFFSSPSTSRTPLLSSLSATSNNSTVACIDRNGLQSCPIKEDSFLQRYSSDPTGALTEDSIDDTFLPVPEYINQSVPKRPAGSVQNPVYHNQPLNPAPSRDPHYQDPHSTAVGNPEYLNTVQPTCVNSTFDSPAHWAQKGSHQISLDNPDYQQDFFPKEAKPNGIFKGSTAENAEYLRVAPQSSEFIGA
Test: ErbB Enzyme Assay (HTRF KinEASE-TK), Assay 3
Assay type: biochemical
Details: EGFR enzyme
Method: The kinases were incubated with 250 nM TK-substrate biotin (CisBio, part of cat #62TKOPEC) at 1 mM ATP along with test compounds in a buffer consisting of 25 mM HEPES, pH 7.4, 10 mM MgCl2, 0.01% Triton X-100, and 2% DMSO in a volume of 8 μL. […] After 30-minute incubation at 22° C., the reaction was quenched by adding 8 μL of quench solution containing 62.5 nM Sa-XL665 and 0.25×TK-Ab-Cryptate in HTRF detection buffer (all from CisBio, part of cat #62TKOPEC). […]
reported_endpoint: IC50

> print(dat)
                                   compound                                    system  reported.endpoint  measured.value
1  C=CC(=O)N1CC[C@H](c2ccc3ncnc(Nc4ccc(Oc5ccn6ncnc6c5)c(C)c4F)c3n2)CC12CC2 (single isomer, unassigned)  EGFR (Homo sapiens (Human), UniProt P00533)               IC50        0.736 µM

For each of the items listed, what is its IC50?
1. C=CC(=O)N1CCC2CN(c3ccc4ncnc(Nc5ccc(Oc6ccn7ncnc7c6)c(Cl)c5)c4n3)CC21 (stereo not shown)
2. C=CC(=O)N1CCC(Oc2ccc3ncnc(Nc4ccc(Oc5ccc6sc(C)nc6c5)c(C)c4F)c3n2)CC1

2.95 µM
≥ 10 µM

For each of the items listed, what is its IC50?
1. C=CC(=O)N1CCC(Oc2ccc3ncnc(Nc4ccc(Oc5cc6nn(C)cc6cn5)c(C)c4)c3n2)CC1
2. CC#CC(=O)N1CCC[C@@H](c2ccc3ncnc(Nc4ccc(Oc5ccn6ncnc6c5)c(C)c4F)c3n2)CC1 (single isomer, unassigned) [Example 211]
3. C=CC(=O)N1CC[C@@H]2C[C@H]1CN2c1ccc2ncnc(Nc3cc(Cl)c(Oc4ccn5ncnc5c4)cc3F)c2n1
4. C=CC(=O)N1C[C@@H]2C[C@H]1CN(c1ccc3ncnc(Nc4cc(C)c(Oc5ccc6c(c5)ncn6C)cc4F)c3n1)C2
5. C=CC(=O)N1CCN(c2ccc3ncnc(Nc4ccc(Oc5ccc6scnc6c5)c(C)c4F)c3n2)CC1(C)C
6. C=CC(=O)N1[C@@H]2CC[C@H]1[C@H](c1ccc3ncnc(Nc4ccc(Oc5ccn6ncnc6c5)c(C)c4)c3n1)C2 (single isomer, unassigned) [Example 233]
7. C=CC(=O)N(C)c1ccc2ncnc(Nc3ccc(Oc4ccc5c(c4)ncn5C)c(C)c3)c2n1
8. C=C(F)C(=O)N1[C@@H]2CC[C@H]1C[C@@H](c1ccc3ncnc(Nc4cc(C)c(Oc5ccn6ncnc6c5)cc4F)c3n1)C2

1: ≥ 10 µM; 2: 5.4 µM; 3: 0.129 µM; 4: ≥ 10 µM; 5: 1.21 µM; 6: 4.88 µM; 7: 0.709 µM; 8: ≥ 10 µM

For each of the items listed, what is its IC50?
1. Cc1c(Oc2ccn3ncnc3c2)ccc(Nc2ncnc3ccc(N4C[C@@H]5CCN(C(=O)C67CC6C7)[C@@H]5C4)nc23)c1F (stereo partly shown)
2. C=CC(=O)N1CCN(c2ccc3ncnc(Nc4ccc(Oc5ccn6ncnc6c5)c(C(F)(F)F)c4)c3n2)CC1(C)C

≥ 10 µM
4.43 µM
